Molecular target: T1, SUDV VLP (Sudan virus (SUDV), UniProt Q66814 33-676)
T1 sequence: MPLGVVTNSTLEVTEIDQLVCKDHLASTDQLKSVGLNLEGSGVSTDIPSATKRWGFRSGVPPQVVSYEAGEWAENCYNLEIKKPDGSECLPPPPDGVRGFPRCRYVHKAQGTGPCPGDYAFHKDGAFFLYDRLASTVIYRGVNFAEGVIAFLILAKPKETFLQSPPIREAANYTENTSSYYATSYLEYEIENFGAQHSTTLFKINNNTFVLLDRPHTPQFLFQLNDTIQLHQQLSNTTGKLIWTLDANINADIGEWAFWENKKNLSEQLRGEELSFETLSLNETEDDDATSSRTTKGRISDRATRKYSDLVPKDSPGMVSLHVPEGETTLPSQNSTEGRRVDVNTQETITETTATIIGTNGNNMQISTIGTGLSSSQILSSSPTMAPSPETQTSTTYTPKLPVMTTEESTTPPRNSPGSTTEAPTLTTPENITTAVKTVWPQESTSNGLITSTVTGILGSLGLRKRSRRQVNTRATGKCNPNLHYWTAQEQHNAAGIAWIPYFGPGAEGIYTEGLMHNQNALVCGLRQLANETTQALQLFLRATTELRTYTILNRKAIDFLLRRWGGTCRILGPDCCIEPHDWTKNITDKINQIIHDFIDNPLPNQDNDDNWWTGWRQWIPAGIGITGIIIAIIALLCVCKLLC
Experiment: ELISA
MEASURED_ATTRIBUTE: EC50 (nM)
Give bare numbers, in nM.

- BINDER: "FVM07 (antibody, V domains shown) VH: EVQLVQSGAEVKRPGESLTISCKTSGYSFTDSWIGWVRQMPGKGLEWMGSIYPGDSDTKYNPSFQGHVTISADKSISTTYLQWSSLKASDTATYYCVAREAYWGQGVLVTVSS VL: QPVLTQPASLSASPGASASLTCTFSGGINVAGYHIFWYQQKPGSPPRYLLRYKSDSDKGQGSGVPSRFSGSKDASANTGILRISGLQSEDEADYYCAIGHSSGVLFGGGTRLTVL"
  EXPERIMENTAL_RESULT: 18.2

Read the next record carefully.
Request the reported EC50 associated with FVM17 (antibody, V domains shown) VH: EVQLVQSGAEVKRPGESLTISCKTSGYSFTDSWISWVRQMPGKGLEWMGSIYPGDSDARYNPSFQGHVTISADKSISTTYLKWSSLKASDTATYYCVKGSETWGQGVLVTVSS VL: QAVVTQPASLSASPGTSASLTCTFSGGINVAGYNILWYQQKPGSPPRFLLRYKSDSDNVQGSGVPSHFSGSKDASANTGILRISGLQSEDEADYYCAIGHSSGWIFGGGTRLTVL 1.43
